# credit: the supplement of paper PMC10567573

B1: INTS3 (parent)
chain: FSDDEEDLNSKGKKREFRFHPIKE

Variants of: B1
procedure summary: protein stability index of a GFP-peptide fusion (GPS, HEK-293T) (PSI 1-6); higher = more stable;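 also: lentivirally expressed fusions sorted by FACS into six bins by GFP to DsRed ratio, PSI derived from sequencing read proportions per bin multiplied by bin number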
condition details: c terminus: a fixed tail appended
Values of protein stability index greater than or equal to 3 map to TRUE; values below map to FALSE.

[
  {
    "sequence change": "N9V",
    "group": "TRUE"
  },
  {
    "sequence change": "E6L",
    "group": "FALSE"
  },
  {
    "sequence change": "F19L",
    "group": "TRUE"
  },
  {
    "sequence change": "P21Q",
    "group": "TRUE"
  },
  {
    "sequence change": "L8E",
    "group": "TRUE"
  },
  {
    "sequence change": "I22L",
    "group": "TRUE"
  },
  {
    "sequence change": "F19R",
    "group": "TRUE"
  },
  {
    "sequence change": "K13L",
    "group": "TRUE"
  },
  {
    "sequence change": "K11E",
    "group": "TRUE"
  },
  {
    "sequence change": "R15A",
    "group": "TRUE"
  },
  {
    "sequence change": "E16G",
    "group": "FALSE"
  },
  {
    "sequence change": "K14S",
    "group": "TRUE"
  },
  {
    "sequence change": "K14C",
    "group": "FALSE"
  },
  {
    "sequence change": "F17L",
    "group": "TRUE"
  },
  {
    "sequence change": "L8A",
    "group": "TRUE"
  },
  {
    "sequence change": "K11F",
    "group": "TRUE"
  },
  {
    "sequence change": "D3P",
    "group": "FALSE"
  },
  {
    "sequence change": "D7V",
    "group": "FALSE"
  },
  {
    "sequence change": "P21M",
    "group": "TRUE"
  },
  {
    "sequence change": "L8M",
    "group": "FALSE"
  }
]
